- System: KM12
- assay.protocol: NCI tumour cell line growth inhibition, 48 h
Active and inactive are the calls of the source. No stated cut-off is given here; in the data, active = GI50 up to about 1.1 µM and inactive = higher.
measurement.type: GI50

compound | GI50
Cc1ccccc1-c1nc2c(N)nc(N)nc2nc1N | 29.8 µM (inactive)
O=C(O)c1cc(CC2Cc3cc4c(cc3C2=O)CCC4)cc2c1CCC2 (stereo not given) | 75.2 µM (inactive)
Cc1ccc(S(=O)(=O)N/N=C/c2oc(-c3ccccc3Cl)c(-c3ccccc3Cl)c2[N+](=O)[O-])cc1 | > 100 µM (inactive)
CC(C)(C)COS(=O)OCC(C)(C)C | > 100 µM (inactive)
COC(=O)/C=C\n1nc(Br)c(=O)[nH]c1=O | > 100 µM (inactive)
C=C1C(=O)O[C@H]2C1C[C@H](O)/C(C)=C/CC[C@@]1(C)O[C@H]21 (stereo not given in full) | 14.7 µM (inactive)
CCCCCCCCCCCCCCCCOP(=O)(O)OCC(N)C(=O)O (stereo not given) | 12.6 µM (inactive)
O=C(c1ccc(O)c([N+](=O)[O-])c1)c1ccc(O)c([N+](=O)[O-])c1 | 35.2 µM (inactive)

State its GI50: N#CC1C(=O)SC2c3ccccc3C(=O)c3ccccc3C12 (stereo not given)
> 10 µM (inactive)

Respond only with GI50 recorded for CCOc1cc2oc(C)cc(=O)c2c(OC)c1/C=N/c1ccc(Cn2c(C)nc3ccccc32)cc1
> 100 µM (inactive)
